// provenance: patent US10160748B2

Molecular target: TNFα trimer (Homo sapiens, UniProt P01375)
Sequence (P01375 77-233 limits assumed): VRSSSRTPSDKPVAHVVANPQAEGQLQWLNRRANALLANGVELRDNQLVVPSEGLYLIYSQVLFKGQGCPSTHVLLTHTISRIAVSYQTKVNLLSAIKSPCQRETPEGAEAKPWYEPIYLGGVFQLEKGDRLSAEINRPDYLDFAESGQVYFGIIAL
Assay: TNFα FP Competitive Binding Assay
Details: FP binding assay; 20 nM TNFα trimer, 1 nM OregonGreen488 probe; read-out: TNF IC50
pIC50: −log10 of the molar value.
parameter_measured: pIC50

molecule: Cn1c(=O)c2ccc(-c3cnc(N4CCOCC4)nc3)cc2n1Cc1cccc(F)c1 [Example 1.1]
parameter_measured: pIC50
result: 5.00 to 6.00

molecule: Cn1c(=O)c2ccc(-c3ccc(N4CCOCC4)nc3)cc2n1Cc1ccccc1OC(F)F [Example 5.2]
parameter_measured: pIC50
result: 5.00 to 6.00

molecule: C[C@@H]1CN(c2ncc(-c3c(F)cc4c(=O)n(C)n(Cc5ccccc5OC(F)F)c4c3F)cn2)CCN1C(=O)CO [Example 46]
parameter_measured: pIC50
result: > 6.00

molecule: Cn1c(=O)c2ccc(-c3cnc(N4CCN5C(=O)CCC5C4)nc3)cc2n1Cc1ccccc1OC(F)F (stereo not shown) [Example 2.23]
parameter_measured: pIC50
result: > 6.00

molecule: CN(C)c1ncc(-c2ccc3c(=O)n(C)n(Cc4ccccc4OC(F)F)c3c2)cn1 [Example 10.15]
parameter_measured: pIC50
result: 5.00 to 6.00

molecule: C[C@@H]1CN(c2ncc(-c3ccc4c(=O)n(C)n([C@@H](C)c5c(F)cccc5F)c4c3)cn2)CCN1C(=O)CO (single isomer, unassigned) [Example 58]
parameter_measured: pIC50
result: > 6.00

molecule: Cn1c(=O)c2ccc(-c3cnc(N4CC5(CC5C(=O)O)C4)nc3)cc2n1Cc1ccccc1OC(F)F (stereo not shown) [Example 2.14]
parameter_measured: pIC50
result: < 5.00

molecule: C[C@@H]1CN(c2ncc(-c3ccc4c(=O)n(C)n(Cc5ccccc5OC(F)F)c4c3)cn2)CCN1C(=O)[C@@H](O)CC(=O)O [Example 51]
parameter_measured: pIC50
result: > 6.00

molecule: CN1CCCC(Nc2ccc(Cl)c(Cn3c4cc(-c5cnc(C(C)(C)O)nc5)ccc4c(=O)n3C)c2)C1=O (stereo not shown) [Example 83]
parameter_measured: pIC50
result: 5.00 to 6.00

molecule: Cn1c(=O)c2ccc(-c3cnc(N4CCN5C(=O)NC[C@@H]5C4)nc3)cc2n1Cc1c(CO)cccc1OC(F)F [Example 66]
parameter_measured: pIC50
result: > 6.00

molecule: CC(=O)N1CCN(c2ncc(-c3ccc4c(=O)n(C)n(Cc5nc(CC#N)ccc5C(F)(F)F)c4c3)cn2)C[C@H]1C [Example 61]
parameter_measured: pIC50
result: > 6.00

molecule: Cc1ccc(OC(F)F)c(Cn2c3cc(-c4cnc(N5CCN(C(=O)CC#N)[C@@H](C)C5)nc4)ccc3c(=O)n2C)c1 [Example 25.1]
parameter_measured: pIC50
result: > 6.00

molecule: Cn1c(=O)c2cnc(-c3cnc(N4CCOCC4)nc3)cc2n1Cc1ccccc1OC(F)F [Example 17]
parameter_measured: pIC50
result: < 5.00

molecule: CCn1c(=O)c2ccc(-c3cnc(N4CCOCC4)nc3)cc2n1Cc1ccccc1OC(F)F [Example 10]
parameter_measured: pIC50
result: 5.00 to 6.00

molecule: Cn1c(=O)c2ccc(-c3ccc(N4CCNC(=O)C4)nc3)cc2n1Cc1ccccc1OC(F)F [Example 5.3]
parameter_measured: pIC50
result: 5.00 to 6.00

molecule: C[C@@H]1CN(c2ncc(-c3ccc4c(=O)n(C)n(Cc5ccccc5OC(F)F)c4c3)cn2)CCN1C(=O)[C@@H](O)CO [Example 38]
parameter_measured: pIC50
result: > 6.00

molecule: Cn1c(=O)c2ccc(-c3cnc(C(C)(C)O)nc3)cc2n1Cc1cc(Cc2cn[nH]c2)ccc1OC(F)F [Example 111]
parameter_measured: pIC50
result: > 6.00

molecule: Cc1nc(N2CCN(C(=O)CO)C[C@H]2C)ncc1-c1ccc2c(=O)n(C)n(Cc3ccccc3OC(F)F)c2c1 [Example 10.10]
parameter_measured: pIC50
result: > 6.00

molecule: Cn1c(=O)c2ccc(-c3cnc(NC4CCOC4)nc3)cc2n1Cc1ccccc1OC(F)F (stereo not shown) [Example 2.20]
parameter_measured: pIC50
result: 5.00 to 6.00

molecule: O=c1[nH]n(Cc2cc(Cl)ccc2Cl)c2cc(-c3cnc(N4CCOCC4)nc3)ccc12 [Example 9.1]
parameter_measured: pIC50
result: < 5.00

molecule: Cc1ccc(C(F)(F)F)c(Cn2c3cc(-c4cnc(N5CCN6C(=O)NC[C@H]6C5)nc4)ccc3c(=O)n2C)n1 [Example 19.2]
parameter_measured: pIC50
result: > 6.00

molecule: Cc1ccc(OC(F)F)c(Cn2c3cc(-c4cnc(N5CCC(O)CC5)nc4)ccc3c(=O)n2C)c1 [Example 22]
parameter_measured: pIC50
result: > 6.00

molecule: Cc1ccc(OC(F)F)c(Cn2c3cc(-c4cnc(N5C[C@@H]6CNC(=O)[C@@H]6C5)nc4)ccc3c(=O)n2C)c1 (racemic) [Example 20.3]
parameter_measured: pIC50
result: 5.00 to 6.00

molecule: Cn1c(=O)c2ccc(-c3cnc(N4CCC(C(=O)O)CC4)nc3)cc2n1Cc1cc(Cl)ccc1Cl [Example 7.2]
parameter_measured: pIC50
result: 5.00 to 6.00

molecule: Cn1c(=O)c2ccc(-c3cnc(N4CCN5C(=O)OC[C@@H]5C4)nc3)cc2n1Cc1ccccc1OC(F)F [Example 2.26]
parameter_measured: pIC50
result: > 6.00

molecule: C[C@H]1CN(C(=O)CO)CCN1c1ncc(-c2ccc3c(=O)n(C)n(Cc4ccccc4OC(F)F)c3c2)cn1 [Example 10.17]
parameter_measured: pIC50
result: > 6.00

molecule: Cn1c(=O)c2ccc(-c3cnc(C(C)(C)O)nc3)cc2n1Cc1cc([C@@H]2CCC[C@@H]2C#N)ccc1OC(F)F (relative stereo) [Example 112]
parameter_measured: pIC50
result: 5.00 to 6.00

molecule: CC(=O)NCc1ccc(OC(F)F)c(Cn2c3cc(-c4cnc(N5CCN(C(C)=O)[C@H](C)C5)nc4)ccc3c(=O)n2C)c1 [Example 27.1]
parameter_measured: pIC50
result: 5.00 to 6.00

###

Target: TNFα trimer (Homo sapiens)
Assay: TNFα FP Competitive Binding Assay
Settings: FP binding assay; 20 nM TNFα trimer, 1 nM OregonGreen488 probe; read-out: TNF IC50
pIC50: −log10 of the molar value.
parameter_measured: pIC50

molecule: CC(=O)N1CCN(c2ncc(-c3ccc4c(=O)n(C)n(Cc5nc(C)ccc5C(F)(F)F)c4n3)cn2)C[C@H]1C
tested_system: TNFα trimer (Homo sapiens)
parameter_measured: pIC50
result: > 6.00
//
molecule: Cc1ccc(OC(F)F)c(Cn2c3cc(-c4cnc(N5CCN(C(=O)CO)CC5)nc4)ccc3c(=O)n2C)c1
tested_system: TNFα trimer (Homo sapiens)
parameter_measured: pIC50
result: > 6.00
//
molecule: Cn1c(=O)c2ccc(-c3cnc(C(C)(C)O)nc3)cc2n1Cc1cc(NCC(C)(C)O)ccc1Cl
tested_system: TNFα trimer (Homo sapiens)
parameter_measured: pIC50
result: 5.00 to 6.00
//
molecule: Cc1ccc(OC(F)F)c(Cn2c3cc(-c4cnc(C(C)(C)O)nc4C)c(F)cc3c(=O)n2C)c1
tested_system: TNFα trimer (Homo sapiens)
parameter_measured: pIC50
result: > 6.00
//
molecule: Cc1ccc(OC(F)F)c(Cn2c3cc(C4=CCC(C(C)(C)O)OC4)c(F)cc3c(=O)n2C)c1 (stereo not drawn)
tested_system: TNFα trimer (Homo sapiens)
parameter_measured: pIC50
result: > 6.00
//
molecule: Cc1ccc(OC(F)F)c(Cn2c3cc(C4=CCC(C(C)O)OC4)c(F)cc3c(=O)n2C)c1 (stereo not drawn)
tested_system: TNFα trimer (Homo sapiens)
parameter_measured: pIC50
result: > 6.00
//
molecule: Cn1c(=O)c2ccc(-c3cnc(N4CCOCC4)nc3)cc2n1Cc1nc(Cl)ccc1Cl
tested_system: TNFα trimer (Homo sapiens)
parameter_measured: pIC50
result: 5.00 to 6.00
//
molecule: CC(=O)N1CCN(c2ncc(-c3ccc4c(=O)n(C)n(Cc5cc(C)ccc5OC(F)F)c4n3)cn2)C[C@H]1C
tested_system: TNFα trimer (Homo sapiens)
parameter_measured: pIC50
result: > 6.00
//
molecule: Cc1ccc(C(F)(F)F)c(Cn2c3cc(-c4cnc(N5CCN(C(=O)CO)C[C@H]5C)nc4)ccc3c(=O)n2C)n1
tested_system: TNFα trimer (Homo sapiens)
parameter_measured: pIC50
result: > 6.00
//
molecule: Cc1ccc(OC(F)F)c(Cn2c3cc(-c4cnc(N5CCC[C@@H]5CO)nc4)ccc3c(=O)n2C)c1
tested_system: TNFα trimer (Homo sapiens)
parameter_measured: pIC50
result: 5.00 to 6.00
//
molecule: CC(=O)N1CCN(c2ncc(-c3ccc4c(=O)n(C)n(Cc5cc(C)ccc5Cl)c4n3)cn2)C[C@H]1C
tested_system: TNFα trimer (Homo sapiens)
parameter_measured: pIC50
result: > 6.00
//
molecule: Cn1c(=O)c2ccc(-c3cnc(N4CCOCC4)cn3)cc2n1Cc1ccccc1OC(F)F
tested_system: TNFα trimer (Homo sapiens)
parameter_measured: pIC50
result: 5.00 to 6.00
//
molecule: CC(=O)N1CCN(c2ncc(-c3ccc4c(=O)n(Cc5ccncc5)n(Cc5ccccc5OC(F)F)c4c3)cn2)C[C@H]1C
tested_system: TNFα trimer (Homo sapiens)
parameter_measured: pIC50
result: 5.00 to 6.00
//
molecule: C[C@@H]1CN(c2ncc(-c3cc4c(cc3C#N)c(=O)n(C)n4Cc3ccccc3OC(F)F)cn2)CCN1C(=O)CO
tested_system: TNFα trimer (Homo sapiens)
parameter_measured: pIC50
result: 5.00 to 6.00
//
molecule: Cn1c(=O)c2ccc(-c3cnc(N4CCC(C(=O)O)CC4)cn3)cc2n1Cc1ccccc1OC(F)F
tested_system: TNFα trimer (Homo sapiens)
parameter_measured: pIC50
result: < 5.00
